experimental protocol: Total body clearance in rat at 1 mg/kg, iv
Type: ADME, organism-based
Parameters: dose 1 mg/kg, route intravenous
recorded conditions: in vivo
value type: clearance

Cc1cc(C)c(C(=O)NC(Cc2ccc(N3CCC(CNc4ccccn4)CC3)cc2)C(=O)O)c(C)c1 (configuration not stated) :: 16 mL/min/kg

Now for a further compound.
Prompt: Look at this compound and give its reported clearance. COc1ccnc(NCC2CCN(c3ccc(CC(NC(=O)c4c(C)cc(C)cc4C)C(=O)O)cc3)CC2)c1 (configuration not stated)
Response: 110 mL/min/kg

----------
assay target: Integrin alpha-V/beta-3 (Homo sapiens, UniProt P05106+P06756)
Sequence (P05106 27-788 limits assumed): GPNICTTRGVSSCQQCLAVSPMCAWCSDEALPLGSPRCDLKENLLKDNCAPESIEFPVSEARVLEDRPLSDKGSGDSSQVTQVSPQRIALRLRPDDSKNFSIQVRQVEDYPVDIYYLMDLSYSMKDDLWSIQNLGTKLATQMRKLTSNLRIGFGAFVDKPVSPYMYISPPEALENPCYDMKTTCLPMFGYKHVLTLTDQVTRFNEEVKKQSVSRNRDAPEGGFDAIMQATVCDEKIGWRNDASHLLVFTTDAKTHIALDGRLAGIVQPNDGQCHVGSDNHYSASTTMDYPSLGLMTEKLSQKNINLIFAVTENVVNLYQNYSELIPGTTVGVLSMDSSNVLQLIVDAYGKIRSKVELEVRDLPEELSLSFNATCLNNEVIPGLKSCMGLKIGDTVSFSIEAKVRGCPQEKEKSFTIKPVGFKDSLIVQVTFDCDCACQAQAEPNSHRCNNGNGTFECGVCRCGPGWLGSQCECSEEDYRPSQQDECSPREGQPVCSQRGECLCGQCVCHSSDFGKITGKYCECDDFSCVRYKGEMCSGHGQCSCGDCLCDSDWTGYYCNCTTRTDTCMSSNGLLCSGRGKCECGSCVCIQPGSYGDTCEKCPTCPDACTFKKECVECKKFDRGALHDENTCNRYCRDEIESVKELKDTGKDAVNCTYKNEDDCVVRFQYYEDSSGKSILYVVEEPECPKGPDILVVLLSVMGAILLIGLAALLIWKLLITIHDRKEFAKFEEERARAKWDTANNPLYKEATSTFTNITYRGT
Sequence (P06756 31-889 limits assumed): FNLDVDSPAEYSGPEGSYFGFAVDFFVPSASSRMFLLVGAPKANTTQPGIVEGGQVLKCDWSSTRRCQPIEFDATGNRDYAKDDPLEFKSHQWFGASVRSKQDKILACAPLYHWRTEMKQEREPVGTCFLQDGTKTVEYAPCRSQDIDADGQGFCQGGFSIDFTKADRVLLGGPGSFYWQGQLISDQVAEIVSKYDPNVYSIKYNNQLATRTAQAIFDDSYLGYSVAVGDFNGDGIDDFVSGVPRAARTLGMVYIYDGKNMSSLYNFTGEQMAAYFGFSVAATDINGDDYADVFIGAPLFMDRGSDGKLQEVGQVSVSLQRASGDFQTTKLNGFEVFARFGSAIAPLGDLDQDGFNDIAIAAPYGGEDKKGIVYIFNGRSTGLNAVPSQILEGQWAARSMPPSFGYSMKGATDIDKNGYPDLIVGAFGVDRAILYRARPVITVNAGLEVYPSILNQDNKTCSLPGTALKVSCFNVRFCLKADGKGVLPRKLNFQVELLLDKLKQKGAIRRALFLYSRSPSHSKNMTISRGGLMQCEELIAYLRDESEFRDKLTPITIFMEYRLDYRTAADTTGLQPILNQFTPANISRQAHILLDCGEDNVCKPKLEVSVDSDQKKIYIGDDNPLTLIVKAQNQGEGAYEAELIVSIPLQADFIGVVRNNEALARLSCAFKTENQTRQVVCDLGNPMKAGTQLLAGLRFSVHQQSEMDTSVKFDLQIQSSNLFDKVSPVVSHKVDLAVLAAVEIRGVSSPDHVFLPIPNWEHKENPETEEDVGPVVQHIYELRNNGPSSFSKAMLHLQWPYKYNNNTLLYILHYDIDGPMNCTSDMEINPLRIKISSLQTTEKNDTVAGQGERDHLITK
Sequence (P06756 891-1048 limits assumed): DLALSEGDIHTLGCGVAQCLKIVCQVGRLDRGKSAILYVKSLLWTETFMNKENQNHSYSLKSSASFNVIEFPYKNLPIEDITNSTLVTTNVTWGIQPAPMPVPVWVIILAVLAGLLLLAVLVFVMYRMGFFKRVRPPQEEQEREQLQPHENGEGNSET
experimental protocol: Inhibition of integrin […] receptor by ELISA
pIC50 reference
Scale note: pIC50 = -log10(concentration in M).

Some entries whose results are on file:
CCc1cc(F)cc(C)c1C(=O)N[C@@H](Cc1ccc(N2CCC(CNc3ccccn3)CC2)cc1)C(=O)O :: 6.21
COc1ccnc(NCC2CCN(c3ccc(CC(NC(=O)c4c(C)cc(C)cc4C)C(=O)O)cc3)CC2)c1 (stereo not given) :: 7.05
CCc1cc(F)cc(C)c1C(=O)N[C@H](Cc1ccc(N2CCC(CNc3ccccn3)CC2)cc1)C(=O)O :: 4.78
CCc1cccc(C)c1C(=O)NC(Cc1ccc(N2CCC(CNc3ccccn3)CC2)cc1)C(=O)O (stereo not given) :: 6.19
O=C(N[C@@H](Cc1ccc(N2CCC(CNc3ccccn3)CC2)cc1)C(=O)O)c1ccccc1 :: 8.37
O=C(O)[C@H](Cc1ccc(N2CCC(CNc3ccccn3)CC2)cc1)N1Cc2ccccc2C1=O :: 7.87
CCc1cc(F)cc(C)c1C(=O)NC(Cc1ccc(N2CCC(CNc3ccccn3)CC2)cc1)C(=O)O (stereo not given) :: 5.98
Cc1cc(C)c(C(=O)NC(Cc2ccc(N3CCC(CNc4ccccn4)CC3)cc2)C(=O)O)c(C)c1 (stereo not given) :: 6.19
Cc1cc(F)cc(C)c1C(=O)NC(Cc1ccc(N2CCC(CNc3ccccn3)CC2)cc1)C(=O)O (stereo not given) :: 6.40

Okay, next one:
Prompt: Look up pIC50 for this compound: Cc1cccc(C)c1C(=O)NC(Cc1ccc(N2CCC(CNc3ccccn3)CC2)cc1)C(=O)O (stereo not given)
Response: 6.62
